# Tested on: barnyardgrass
# METHOD: Test C flooded paddy test
# Type: in vivo, Echinochloa crus-galli
# REPORTED_CONDITIONS: Flood; 500 g ai/ha; scale 0 to 100
MEASUREMENT_NAME: Plant response rating, Barnyardgrass

COMPOUND | Plant response rating, Barnyardgrass
O=C1NCC(c2cccc(Cl)c2)C1C(=O)Nc1ccccc1F (racemic) | 40
O=C1NCC(c2cccc(C(F)(F)F)c2)C1C(=O)Nc1nnc(C(F)(F)F)s1 (racemic) | 0

query: Tell me its Plant response rating, Barnyardgrass given "O=C1NC[C@@H](c2cccc(C(F)(F)F)c2)[C@@H]1C(=O)Nc1cccc(F)c1F" as the entry.
result: 30

query: Tell me its Plant response rating, Barnyardgrass given "O=C1NC[C@H](c2cccc(C(F)(F)F)c2)[C@H]1C(=O)Nc1cccc(F)c1F" as the entry.
result: 75

###

# Test system: velvetleaf
# METHOD: Test C pre-/postemergence herbicide test
# Assay type: in vivo, Abutilon theophrasti
# REPORTED_CONDITIONS: Preemergence, 125 g ai/ha; scale 0 to 100 (0 no effect, 100 complete control)
Each entry below lists one item and its recorded Plant response rating, Velvetleaf value.

Solved cases below.
COMPOUND | TESTED_ON | VALUE_REPORTED
O=C1NCC(c2ccc(Cl)cc2)C1C(=O)Nc1cccc(F)c1F (centres unmarked) | velvetleaf | 15
O=C1NC[C@H](c2cccc(C(F)(F)F)c2)[C@H]1C(=O)Nc1ccccc1F | velvetleaf | 0
O=C1NCC(c2cccc(OC(F)F)c2)C1C(=O)Nc1cccc(F)c1F (centres unmarked) | velvetleaf | 45
O=C1NCC(c2ccc(Cl)c(Cl)c2)C1C(=O)Nc1ccccc1F (racemic) | velvetleaf | 0

# input for lookup
query: Tell me its Plant response rating, Velvetleaf given O=C1NCC(c2ccc(F)c(C(F)(F)F)c2)C1C(=O)Nc1cccc(F)c1F (racemic) as the entry.
result: 30

###

Each entry below lists one item and its recorded Plant response rating, Wheat, Winter value.
# Test system: wheat, winter
# METHOD: Test D pre-/postemergence herbicide test
# Format: in vivo, Triticum aestivum
# REPORTED_CONDITIONS: Preemergence, 62 g ai/ha; scale 0 to 100 (0 no effect, 100 complete control)
I'd appreciate a reply containing only the number, no unit.

query: Tell me its Plant response rating, Wheat, Winter given O=C1NCC(c2ccc(C(F)(F)F)cc2)C1C(=O)Nc1cccc(F)c1F (racemic) as the entry.
result: 10

query: Tell me its Plant response rating, Wheat, Winter given O=C1NCC(c2cc(F)c(F)cc2F)C1C(=O)Nc1cccc(F)c1F (centres unmarked) as the entry.
result: 0

query: Tell me its Plant response rating, Wheat, Winter given "O=C1NC[C@H](c2cccc(C(F)(F)F)c2)[C@H]1C(=O)Nc1ccccc1F" as the entry.
result: 15

query: Tell me its Plant response rating, Wheat, Winter given O=C1NCC(c2ccc(F)c(C(F)(F)F)c2)C1C(=O)Nc1cccc(F)c1F (racemic) as the entry.
result: 0

query: Tell me its Plant response rating, Wheat, Winter given O=C1NCC(c2ccc(C(F)(F)F)cc2)C1C(=O)Nc1ccccc1F (centres unmarked) as the entry.
result: 10

###

Each entry below lists one item and its recorded Plant response rating, Pigweed value.
# Tested on: pigweed
# METHOD: Test C pre-/postemergence herbicide test
# Assay type: in vivo, Amaranthus retroflexus
# REPORTED_CONDITIONS: Preemergence, 125 g ai/ha; scale 0 to 100 (0 no effect, 100 complete control)
I'd appreciate a reply containing only the number, no unit.

COMPOUND | TESTED_ON | Plant response rating, Pigweed
Cc1ccccc1NC(=O)C1C(=O)NCC1c1cccc(C(F)(F)F)c1 (racemic) | pigweed | 0
O=C1NCC(c2ccc(C(F)(F)F)cc2)C1C(=O)Nc1ccccc1F (stereo not shown) | pigweed | 85
O=C1NC[C@H](c2cccc(C(F)(F)F)c2)[C@H]1C(=O)Nc1cccc(F)c1F | pigweed | 100

# input for lookup
query: Tell me its Plant response rating, Pigweed given O=C1NCCC1C(=O)N(c1ccc(F)c(F)c1)c1ccccc1F (stereo not shown) as the entry.
result: 0
